Assay: Pharmacokinetic parameters after oral or intravenous administration
Type: in vivo
Conditions: rat, plasma; rats, Oral (PO), 10 mg/kg
# Lookup of reported Cmax keyed by entry
Form entry: enter the amount, then its unit.

Molecule | Readout Value
O=C(Cc1c[nH]c2ccc(Cl)cc12)Nc1nc2ccccc2s1 [Comparative Example 1, reference compound] | 126 ng/mL

Could you now consider this next molecule?
Input line: What does the data say about its Cmax? Entry: O=C(Cc1c[nH]c2ccc(Cl)cc12)Nc1nc2ccc(N3CCOCC3)cc2s1 [Compound 6]
Output line: 742 ng/mL

---

Assay: Pharmacokinetic parameters after oral or intravenous administration
Assay type: in vivo
Conditions: rat, plasma; rats, Intravenous (IV), 1 mg/kg
Property: AUC(0-t); scope: individual molecules
Number first, unit second.

Molecule | Readout Value
O=C(Cc1c[nH]c2ccc(Cl)cc12)Nc1nc2ccccc2s1 [Comparative Example 1, reference compound] | 183 ng·h/mL

As a next step, examine the molecule that follows.
Input line: Dear colleague, I am looking for the recorded AUC(0-t) of the following molecule: O=C(Cc1c[nH]c2ccc(Cl)cc12)Nc1nc2ccc(N3CCOCC3)cc2s1
Output line: 1160 ng·h/mL
